- Target Under Test: 5-hydroxytryptamine receptor 2A (Rattus norvegicus)
- Assay Comment: Percent maximal 5-HT stimulation at cloned rat 5-hydroxytryptamine 2A receptor (phosphoinositide hydrolysis study) at a conc of 100 uM
Observed Property: Max stimulation (%)
Report only the number, with the unit % understood.

Input COc1ccc(OC)c(C[C@@H](C)N)c1 . Output Max stimulation: 16

Input C[C@H](N)Cc1c2ccoc2cc2ccoc12 . Output Max stimulation: 68

Input COc1cc(C(F)(F)F)c(OC)cc1CC(C)N (stereo not drawn) . Output Max stimulation: 86

----------
- Target Under Test: 5-hydroxytryptamine receptor 2C (Rattus norvegicus, UniProt P08909)
- Sequence (P08909 whole entry): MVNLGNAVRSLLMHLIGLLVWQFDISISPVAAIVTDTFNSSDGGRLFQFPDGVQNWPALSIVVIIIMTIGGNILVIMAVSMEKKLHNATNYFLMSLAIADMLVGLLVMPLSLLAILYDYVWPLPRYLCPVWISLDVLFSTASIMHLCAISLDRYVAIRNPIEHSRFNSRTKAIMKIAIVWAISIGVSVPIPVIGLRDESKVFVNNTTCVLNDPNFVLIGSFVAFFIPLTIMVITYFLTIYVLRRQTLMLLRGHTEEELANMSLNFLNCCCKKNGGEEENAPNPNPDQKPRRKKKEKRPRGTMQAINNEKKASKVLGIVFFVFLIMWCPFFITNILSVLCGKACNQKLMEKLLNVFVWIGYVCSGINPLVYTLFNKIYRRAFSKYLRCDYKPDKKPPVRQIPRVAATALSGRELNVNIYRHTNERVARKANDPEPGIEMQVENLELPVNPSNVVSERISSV
Observed Property: pKi
Just the number, please; pKi means minus log10 of the concentration in mol/L.

Input C[C@@H](N)Cc1c2ccoc2c(C(F)(F)F)c2ccoc12 . Output pKi: 9.40

Input C[C@H](N)Cc1c2c(cc3c1OCC3)OCC2 . Output pKi: 6.92

Input C[C@@H](N)Cc1c2c(c(C(F)(F)F)c3c1OCC3)OCC2 . Output pKi: 8.72

Input C[C@@H](N)Cc1c2c(c(Br)c3c1OCC3)OCC2 . Output pKi: 9.59

Input COc1ccc(OC)c(C[C@@H](C)N)c1 . Output pKi: 6.28

Input C[C@H](N)Cc1c2ccoc2c(Br)c2ccoc12 . Output pKi: 9.60

Input C[C@H](N)Cc1c2ccoc2c(C(F)(F)F)c2ccoc12 . Output pKi: 9.16

Input C[C@H](N)Cc1c2ccoc2cc2ccoc12 . Output pKi: 8.22

Input C[C@H](N)Cc1c2c(c(Br)c3c1OCC3)OCC2 . Output pKi: 8.96

Input C[C@@H](N)Cc1c2ccoc2cc2ccoc12 . Output pKi: 9.10

Input COc1cc(C(F)(F)F)c(OC)cc1CC(C)N (centres undefined) . Output pKi: 8.42

Input C[C@@H](N)Cc1c2ccoc2c(Br)c2ccoc12 . Output pKi: 9.96

Input C[C@@H](N)Cc1c2c(cc3c1OCC3)OCC2 . Output pKi: 8.09

Input C[C@H](N)Cc1c2c(c(C(F)(F)F)c3c1OCC3)OCC2 . Output pKi: 8.80

----------
- Target Under Test: UniProtKB P14842
- Sequence (P14842 whole entry): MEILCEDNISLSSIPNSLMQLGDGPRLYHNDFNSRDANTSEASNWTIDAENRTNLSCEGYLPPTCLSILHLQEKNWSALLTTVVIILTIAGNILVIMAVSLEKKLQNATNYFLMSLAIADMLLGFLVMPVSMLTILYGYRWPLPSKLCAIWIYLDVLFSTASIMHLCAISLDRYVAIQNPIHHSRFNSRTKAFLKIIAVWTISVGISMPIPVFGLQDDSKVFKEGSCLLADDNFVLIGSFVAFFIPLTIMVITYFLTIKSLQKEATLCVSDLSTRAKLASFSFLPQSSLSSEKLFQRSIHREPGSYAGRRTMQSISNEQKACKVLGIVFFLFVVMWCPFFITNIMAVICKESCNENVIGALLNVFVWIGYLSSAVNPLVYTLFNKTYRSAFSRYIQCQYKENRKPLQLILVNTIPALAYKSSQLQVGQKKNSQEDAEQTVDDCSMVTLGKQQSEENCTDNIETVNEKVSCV
- Assay Comment: Percent maximal 5-HT stimulation at cloned rat 5-hydroxytryptamine 2A receptor (phosphoinositide hydrolysis study) at a conc of 100 uM
Give measured Max stimulation for each item. Keep answers brief.
Report only the number, with the unit % understood.

Input C[C@@H](N)Cc1c2ccoc2c(C(F)(F)F)c2ccoc12 . Output Max stimulation: 60

Input C[C@H](N)Cc1c2c(cc3c1OCC3)OCC2 . Output Max stimulation: 62

Input C[C@H](N)Cc1c2ccoc2c(Br)c2ccoc12 . Output Max stimulation: 79

Input C[C@@H](N)Cc1c2ccoc2cc2ccoc12 . Output Max stimulation: 76

Input C[C@H](N)Cc1c2ccoc2c(C(F)(F)F)c2ccoc12 . Output Max stimulation: 52

Input C[C@H](N)Cc1c2c(c(Br)c3c1OCC3)OCC2 . Output Max stimulation: 76
